Cited source for all entries: patent US20180099931A1

# STUDY SYSTEM: F508delCFTR (Homo sapiens, UniProt P13569, DEL508-508)
# Construct: expressed in transfected cells; host or cells: CFBE41o- human lung-derived epithelial cells (CFBE4lo-F508delCFTR-HRP), doxycycline-inducible
# Sequence (P13569 with tags, fused parts or gaps DEL508-508): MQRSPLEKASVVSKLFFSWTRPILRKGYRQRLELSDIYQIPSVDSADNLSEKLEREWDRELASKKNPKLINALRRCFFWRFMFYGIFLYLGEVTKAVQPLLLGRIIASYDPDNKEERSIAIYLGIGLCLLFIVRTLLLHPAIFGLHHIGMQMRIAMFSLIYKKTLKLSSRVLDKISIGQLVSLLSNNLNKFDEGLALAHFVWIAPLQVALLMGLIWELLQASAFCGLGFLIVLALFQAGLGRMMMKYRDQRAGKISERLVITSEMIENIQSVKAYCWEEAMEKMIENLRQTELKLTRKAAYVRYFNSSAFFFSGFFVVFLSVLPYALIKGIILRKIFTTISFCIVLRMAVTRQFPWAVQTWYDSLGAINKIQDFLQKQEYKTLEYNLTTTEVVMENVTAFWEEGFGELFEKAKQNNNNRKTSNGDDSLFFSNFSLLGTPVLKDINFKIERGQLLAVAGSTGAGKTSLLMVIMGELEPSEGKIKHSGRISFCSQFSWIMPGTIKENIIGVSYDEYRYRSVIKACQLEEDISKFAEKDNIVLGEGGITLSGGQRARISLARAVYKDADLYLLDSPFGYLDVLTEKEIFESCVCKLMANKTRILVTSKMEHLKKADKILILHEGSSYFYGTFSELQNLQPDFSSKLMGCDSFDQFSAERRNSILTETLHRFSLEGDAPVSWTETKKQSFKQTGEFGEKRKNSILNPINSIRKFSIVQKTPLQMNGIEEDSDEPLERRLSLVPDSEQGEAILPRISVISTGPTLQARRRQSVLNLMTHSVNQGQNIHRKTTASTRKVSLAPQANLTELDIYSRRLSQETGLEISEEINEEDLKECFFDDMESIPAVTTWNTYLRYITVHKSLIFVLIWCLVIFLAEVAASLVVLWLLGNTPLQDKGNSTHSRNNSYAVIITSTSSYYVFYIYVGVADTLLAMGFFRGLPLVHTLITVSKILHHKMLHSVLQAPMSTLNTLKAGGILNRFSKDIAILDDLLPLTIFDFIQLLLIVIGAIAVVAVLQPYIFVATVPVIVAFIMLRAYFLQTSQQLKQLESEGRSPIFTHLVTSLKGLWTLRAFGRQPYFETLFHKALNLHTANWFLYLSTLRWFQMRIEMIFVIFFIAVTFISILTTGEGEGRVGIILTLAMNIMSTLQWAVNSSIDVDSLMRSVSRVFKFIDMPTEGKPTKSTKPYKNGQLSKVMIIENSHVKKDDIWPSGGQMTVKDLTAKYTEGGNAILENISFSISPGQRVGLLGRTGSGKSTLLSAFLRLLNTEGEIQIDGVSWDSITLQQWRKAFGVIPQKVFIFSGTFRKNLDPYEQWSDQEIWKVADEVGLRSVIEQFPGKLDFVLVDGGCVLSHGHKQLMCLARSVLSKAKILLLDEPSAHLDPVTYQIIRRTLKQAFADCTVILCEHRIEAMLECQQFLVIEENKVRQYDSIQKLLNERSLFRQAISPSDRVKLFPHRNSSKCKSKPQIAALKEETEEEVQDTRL
# ASSAY COMMENT: Cell Surface Expression-Horse Radish Peroxidase (CSE-HRP) Assay
# Assay type: cell-based
# MEASUREMENT CONTEXT: with co-corrector (2 μM of 3-[(2R,4R)-4-({[1-(2,2-difluoro-1,3-benzodioxol-5-yl)cyclopropyl]carbonyl}amino)-7-methoxy-3,4-dihydro-2H-chromen-2-yl]benzoic acid); read-out: EC50 (with co-corrector)
MEASUREMENT LABEL: EC50

Any idea what EC50 was measured for COc1cc(Cl)ccc1CN[C@@H]1[C@@H](C(C)(C)C)[C@H](C(=O)O)N(C(=O)C2CCCCC2)[C@@H]1c1ccccn1 (racemic) [III-82] ?
1000 to 10000 nM

Return reported EC50; argument: COc1ccc(C(C)(C)C)cc1CN[C@H]1[C@H](C(C)(C)C)[C@@H](C(=O)O)N(C(=O)C2Cc3ccccc3CO2)[C@H]1c1cccnc1N(C)C (single isomer, unassigned) [II-481]
1000 to 10000 nM

So what's the measured EC50 for this one? Cc1cc(CN[C@H]2[C@H](C(C)(C)C)[C@@H](C(=O)O)N(C(=O)C3CCCCC3)[C@H]2c2ccccc2)cc(C)c1OC(F)F [III-141]
1000 to 10000 nM

Quick one: EC50 for COc1ccc(C(C)(C)C)cc1CN[C@H]1[C@H](C(C)(C)C)[C@@H](C(=O)O)N(C(=O)C2CCCCN2S(C)(=O)=O)[C@H]1c1ccccc1 (some centres unmarked) [Example I-138] ?
1000 to 10000 nM

Param item = COc1ccc(C(C)(C)C)cc1CN[C@H]1[C@H](C(C)(C)C)[C@@H](C(=O)O)N(C(=O)C2Cc3ccccc3O2)[C@H]1c1cccnc1OC (single isomer, unassigned) [Example I-165] ; retrieve measured EC50.
< 1000 nM

----------
# STUDY SYSTEM: F508delCFTR (Homo sapiens, UniProt P13569, DEL508-508)
# Construct: expressed in transfected cells; host or cells: CFBE41o- human lung-derived epithelial cells (CFBE4lo-F508delCFTR-HRP), doxycycline-inducible
# ASSAY COMMENT: Cell Surface Expression-Horse Radish Peroxidase (CSE-HRP) Assay;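 as to Maximum % activity (with co-corrector): co-corrector and positive control are both the same reference corrector at 2 µM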
# Type: cell-based
# MEASUREMENT CONTEXT: with co-corrector (2 μM); maximum at any tested concentration, normalized to on-plate positive control
MEASUREMENT LABEL: Maximum % activity (with co-corrector)

Some solved cases for reference:
{"COMPOUND": "COc1ccc(C(C)(C)C)cc1CN[C@H]1[C@H](C(C)(C)C)[C@@H](C(=O)O)N(C(=O)C2CC3CCC(C2)O3)[C@H]1c1ccccc1 (some centres unmarked)", "Maximum % activity (with co-corrector)": "+++ (≥350)"}
{"COMPOUND": "COc1ncc(C2CCC2)cc1CN[C@H]1[C@H](C(C)(C)C)[C@@H](C(=O)O)N(C(=O)[C@@H]2CCCC(F)(F)C2)[C@H]1c1ccccc1", "Maximum % activity (with co-corrector)": "+++ (≥350)"}
{"COMPOUND": "COc1ccc(C(C)(C)C)cc1CN[C@H]1[C@H](C(C)(C)C)[C@@H](C(=O)O)N(C(=O)OC(C)C)[C@H]1c1ccccc1", "Maximum % activity (with co-corrector)": "+++ (≥350)"}
{"COMPOUND": "COc1cc2c(cc1CN[C@H]1[C@H](C(C)(C)C)[C@@H](C(=O)O)N(C(=O)[C@@H]3CCCC(F)(F)C3)[C@H]1c1ccccc1)CCC2", "Maximum % activity (with co-corrector)": "+++ (≥350)"}
{"COMPOUND": "COc1ncc(C(F)(F)F)cc1CN[C@H]1[C@H](C23CC(C2)C3)[C@@H](C(=O)O)N(C(=O)OC(C)C)[C@H]1c1ccccc1", "Maximum % activity (with co-corrector)": "+++ (≥350)"}
{"COMPOUND": "Cc1ccc(CN[C@H]2[C@H](C(C)(C)C)[C@@H](C(=O)O)N(C(=O)C3CCCCC3)[C@H]2c2ccccc2)cc1C", "Maximum % activity (with co-corrector)": "++ (≥150 and <350)"}
{"COMPOUND": "COc1cccc([C@@H]2[C@H](NCc3ccccc3OC(F)F)[C@@H](C(C)(C)C)[C@H](C(=O)O)N2C(=O)C2CCCCC2)n1 (racemic)", "Maximum % activity (with co-corrector)": "+++ (≥350)"}
{"COMPOUND": "COc1ncc(C(F)(F)F)cc1CN[C@H]1[C@H](C(C)(C)C)[C@@H](C(=O)O)N(C(=O)C2CCCCC2)[C@H]1c1ccccc1OC(F)F", "Maximum % activity (with co-corrector)": "+++ (≥350)"}
{"COMPOUND": "COc1cc(C(F)(F)F)ccc1CN[C@@H]1[C@@H](C(C)(C)C)[C@H](C(=O)O)N(C(=O)[C@H](C)c2ccccc2)[C@@H]1c1ccccc1", "Maximum % activity (with co-corrector)": "+ (<150)"}
{"COMPOUND": "COc1ccc(C(C)(C)C)cc1CN[C@H]1[C@H](C(C)(C)C)[C@@H](C(=O)O)N(C(=O)C2CCc3ccccc3O2)[C@H]1c1cccnc1N(C)C (single isomer, unassigned)", "Maximum % activity (with co-corrector)": "+++ (≥350)"}

Which Maximum % activity (with co-corrector) value belongs to "COc1ccc(C(C)(C)C)cc1CN[C@H]1[C@H](C(C)(C)C)[C@@H](C(=O)O)N(C(=O)[C@@H]2CCCO2)[C@H]1c1cccnc1C1CC1" ?
+++ (≥350)

Which value of Maximum % activity (with co-corrector) has been reported for "COc1ccc(C(F)(F)F)cc1CN[C@H]1[C@H](C(C)(C)OC)[C@@H](C(=O)O)N(C(=O)C2CCCCC2)[C@H]1c1ccccc1" in the records?
+++ (≥350)

Field request: Maximum % activity (with co-corrector) | item: "CC(C)(C)[C@H]1[C@H](NCc2ccc(F)cc2C(F)(F)F)[C@H](c2ccccc2)N(C(=O)C2CCCCC2)[C@@H]1C(=O)O"
++ (≥150 and <350)
